Each item that follows carries a reported inhibition at 10 µM.
- target-or-test-system: SARS‐CoV‐2 Nsp15 (Severe acute respiratory syndrome coronavirus 2)
- assay-remarks: biochemical
- condition-context: primary screen, 10 µM (Table S1); read-out: PS Inhibition % 10 µM
Where a name gives a salt, the structure may show the parent alone.
value-kind: inhibition at 10 µM (%)

INSERT INTO assay_data (molecule, readout_unit, reported_measurement) VALUES
  ('Cc1cc2nc3ccc(N(C)C)cc3[s+]c2cc1N [Tolonium chloride]', '%', 72),
  ('CC1(C)CCC2=C(O1)C(=O)c1ccccc1C2=O [alphaLapachone]', '%', 76),
  ('CN(C)CCNc1nc2cc(O)ccc2c2c1C(=O)c1ccccc1-2.Cl.Cl [TAS‐103 (dihydrochloride)]', '%', 63.4),
  ('CCOC(=O)CCNc1cc(N2CCc3ccccc3CC2)nc(-c2ccccn2)n1 [GSK J4 HCl]', '%', 75.8),
  ('COc1cc2c(cc1OC)CN(CCc1ccc(NC(=O)c3cccc4c(=O)c5cccc(OC)c5[nH]c34)cc1)CC2 [Elacridar]', '%', 68.3),
  ('COc1cc2c(NC3CCN(C4CCCCC4)CC3)nc(N3CCCN(C(C)C)CC3)nc2cc1OCCCN1CCCCC1 [UNC0646]', '%', 75.3),
  ('COc1cc2c(NC3CCN(C(C)C)CC3)nc(C3CCCCC3)nc2cc1OCCCN1CCCC1 [UNC0638]', '%', 56.7),
  ('NCCNc1ccc(NCCN)c2c1C(=O)c1ccncc1C2=O [Pixantrone (dimaleate)]', '%', 82.3),
  ('COc1cc2c(NC3CCN(C)CC3)nc(N3CCCN(C)CC3)nc2cc1OCCOCCN(C)C [UNC0321]', '%', 64);

###

- target-or-test-system: SARS‐CoV‐2 Nsp15 (Severe acute respiratory syndrome coronavirus 2)
- assay-remarks: biochemical
- condition-context: primary screen, 10 μM compound, 1 mM DTT buffer, normalized to 50 μM Congo red (100%) and DMSO (0%); read-out: PS inhibition % 10 μM (single point measurement)
Where a name gives a salt, the structure may show the parent alone.
The following molecules are listed with their measured inhibition at 10 µM values.
value-kind: inhibition at 10 µM

INSERT INTO results (molecule, value_kind, reported_measurement) VALUES
  ('CC1(C)CCC2=C(O1)C(=O)c1ccccc1C2=O', 'inhibition at 10 µM', '76%'),
  ('COc1cccc2c1C(=O)c1c(O)c3c(c(O)c1C2=O)C[C@@](O)(C(=O)CO)C[C@@H]3O[C@H]1C[C@H](N2CCO[C@H](OC)C2)[C@H](O)[C@H](C)O1', 'inhibition at 10 µM', '65.2%'),
  ('COc1cc2c(cc1OC)CN(CCc1ccc(NC(=O)c3cccc4c(=O)c5cccc(OC)c5[nH]c34)cc1)CC2', 'inhibition at 10 µM', '68.3%'),
  ('CCOC(=O)CCNc1cc(N2CCc3ccccc3CC2)nc(-c2ccccn2)n1 [GSK J4 HCl]', 'inhibition at 10 µM', '75.8%');

###

- target-or-test-system: SARS‐CoV‐2 Nsp15 (Severe acute respiratory syndrome coronavirus 2)
- assay-remarks: biochemical
- condition-context: read-out: IC50 + DTT (μM) (CI in μM)
value-kind: IC50 (µM)

INSERT INTO assay_data (line_notation, target_or_test_system, reported_measurement) VALUES
  ('Oc1ccc2ccccc2c1SSc1c(O)ccc2ccccc12', 'SARS‐CoV‐2 Nsp15 (Severe acute respiratory syndrome coronavirus 2)', 0.9);

###

- target-or-test-system: SARS‐CoV‐2 Nsp15 (Severe acute respiratory syndrome coronavirus 2, UniProt P0DTD1)
- assay-remarks: biochemical
- condition-context: primary screen, 10 µM (Table S1); read-out: PS Inhibition % 10 µM
Where a name gives a salt, the structure may show the parent alone.
Assign class by inhibition at 10 µM: not lower than 70% means Met; lower than 70% means Not met.

INSERT INTO assay_data (molecule, assigned_category) VALUES
  ('COCCn1c2c([n+](Cc3cnccn3)c1C)C(=O)c1ccccc1C2=O [YM‐155]', 'Met'),
  ('CCCCCCCCN=c1ccn(CCCCCCCCCCn2ccc(=NCCCCCCCC)cc2)cc1 [Octenidine dihydrochloride]', 'Met'),
  ('COc1cccc2c1C(=O)c1c(O)c3c(c(O)c1C2=O)C[C@@](O)(C(=O)CO)C[C@@H]3O[C@H]1C[C@H](N2CCO[C@H](OC)C2)[C@H](O)[C@H](C)O1 [Nemorubicin]', 'Not met'),
  ('CC(C)Nc1cccnc1N1CCN(C(=O)c2cc3cc(NS(C)(=O)=O)ccc3[nH]2)CC1 [Delavirdine (mesylate)]', 'Met'),
  ('COc1cc2c(NC3CCN(CC4CCCCC4)CC3)nc(N3CCCN(C(C)C)CC3)nc2cc1OCCCN1CCCCC1 [UNC0631]', 'Met'),
  ('COc1cc2c(NC3CCN(C(C)C)CC3)nc(N3CCC(F)(F)CC3)nc2cc1OCCCN1CCCC1 [UNC0642]', 'Not met');

###

Catalogue of pIC50 values
- target-or-test-system: SARS‐CoV‐2 Nsp15 (Severe acute respiratory syndrome coronavirus 2, UniProt P0DTD1)
- assay-remarks: biochemical
- Assay type: biochemical
- condition-context: L-cysteine buffer (Table S1); read-out: IC50 +L-Cys
pIC50: −log10 of the molar value. Counter-ions that a name gives are not always drawn.
value-kind: pIC50

INSERT INTO results (molecule, reported_measurement) VALUES
  ('COc1cc2c(NC3CCN(C)CC3)nc(N3CCCN(C)CC3)nc2cc1OCCOCCN(C)C [UNC0321]', 5.49),
  ('CCCCCCCCN=c1ccn(CCCCCCCCCCn2ccc(=NCCCCCCCC)cc2)cc1 [Octenidine dihydrochloride]', 5.36),
  ('COc1cc2c(NC3CCN(C(C)C)CC3)nc(C3CCCCC3)nc2cc1OCCCN1CCCC1 [UNC0638]', 5.32),
  ('COc1cc2c(NC3CCN(CC4CCCCC4)CC3)nc(N3CCCN(C(C)C)CC3)nc2cc1OCCCN1CCCCC1 [UNC0631]', 5.60),
  ('CN[C@H](CC(C)C)C(=O)N[C@H]1C(=O)N[C@@H](CC(N)=O)C(=O)N[C@H]2C(=O)N[C@H]3C(=O)N[C@H](C(=O)N[C@H](C(=O)O)c4cc(O)cc(O)c4-c4cc3ccc4O)[C@H](O[C@H]3C[C@](C)(N)[C@@H](O)[C@H](C)O3)c3ccc(c(Cl)c3)Oc3cc2cc(c3O[C@@H]2O[C@H](CO)[C@@H](O)[C@H](O)[C@H]2O[C@H]2C[C@](C)(NCc3ccc(-c4ccc(Cl)cc4)cc3)[C@@H](O)[C@H](C)O2)Oc2ccc(cc2Cl)[C@H]1O.O=P(O)(O)O.O=P(O)(O)O [Oritavancin (diphosphate)]', 5.91);

###

- target-or-test-system: SARS‐CoV‐2 Nsp15 (Severe acute respiratory syndrome coronavirus 2, UniProt P0DTD1)
- assay-remarks: biochemical
- condition-context: hit confirmation, 10 µM, DTT buffer; read-out: HC inhibition % +DTT 10 µM
Counter-ions that a name gives are not always drawn.
Item-by-item account of inhibition at 10 µM
value-kind: inhibition at 10 µM (%)

INSERT INTO results (molecule, readout_unit, reported_measurement) VALUES
  ('COc1cc2c(NC3CCN(C(C)C)CC3)nc(C3CCCCC3)nc2cc1OCCCN1CCCC1', '%', 69.5),
  ('CCOC(=O)CCNc1cc(N2CCc3ccccc3CC2)nc(-c2ccccn2)n1 [GSK J4 HCl]', '%', 82.2),
  ('COc1cccc2c1C(=O)c1c(O)c3c(c(O)c1C2=O)C[C@@](O)(C(=O)CO)C[C@@H]3O[C@H]1C[C@H](N2CCO[C@H](OC)C2)[C@H](O)[C@H](C)O1', '%', 69.2),
  ('Cc1cc2nc3ccc(N(C)C)cc3[s+]c2cc1N [Tolonium chloride]', '%', 76.5),
  ('COc1cc2c(NC3CCN(C)CC3)nc(N3CCCN(C)CC3)nc2cc1OCCCN(C)C', '%', 73.9),
  ('NCCNc1ccc(NCCN)c2c1C(=O)c1ccncc1C2=O [Pixantrone (dimaleate)]', '%', 77.5),
  ('CN(C)CCNc1nc2cc(O)ccc2c2c1C(=O)c1ccccc1-2.Cl.Cl [TAS‐103 (dihydrochloride)]', '%', 63.6),
  ('COCCn1c2c([n+](Cc3cnccn3)c1C)C(=O)c1ccccc1C2=O', '%', 79.7),
  ('COc1cc2c(NC3CCN(C4CCCCC4)CC3)nc(N3CCCN(C(C)C)CC3)nc2cc1OCCCN1CCCCC1', '%', 83.2),
  ('CC1(C)CCC2=C(O1)C(=O)c1ccccc1C2=O', '%', 82.8),
  ('CC(C)Nc1cccnc1N1CCN(C(=O)c2cc3cc(NS(C)(=O)=O)ccc3[nH]2)CC1 [Delavirdine (mesylate)]', '%', 77.3),
  ('COc1cc2c(NC3CCN(CC4CCCCC4)CC3)nc(N3CCCN(C(C)C)CC3)nc2cc1OCCCN1CCCCC1', '%', 71.4),
  ('COc1cc2c(cc1OC)CN(CCc1ccc(NC(=O)c3cccc4c(=O)c5cccc(OC)c5[nH]c34)cc1)CC2', '%', 72.7),
  ('COc1cc2c(NC3CCN(C(C)C)CC3)nc(N3CCC(F)(F)CC3)nc2cc1OCCCN1CCCC1', '%', 77.5),
  ('CCCCCCCCN=c1ccn(CCCCCCCCCCn2ccc(=NCCCCCCCC)cc2)cc1 [Octenidine dihydrochloride]', '%', 92.4),
  ('COc1cc2c(NC3CCN(C)CC3)nc(N3CCCN(C)CC3)nc2cc1OCCOCCN(C)C', '%', 77.6);
